Test system: M. tuberculosis strain H37Rv
Assay: Mycobacterial growth inhibition, spot culture on solid medium, M. tuberculosis H37Rv
Assay type: cell-based
Settings: Mycobacterium tuberculosis, 336 h; strain H37Rv; solid medium 7H10-OADC; no growth after 2 weeks; read-out: MIC M. tuberculosis
Give MIC for every item shown.

Prompt: Form entry - test system: M. tuberculosis strain H37Rv; read-out: MIC; compound: CCN1CCC(O)(c2ccccc2)C(C(=O)c2ccccc2)C1 (centres unmarked) [Compound 4]
Completion: 5 to 10 µg/mL

Prompt: Repeat for the following compound: O=C(c1ccccc1)C1CN(Cc2ccccc2)CCC1(O)c1ccccc1 (centres unmarked) [Compound 8]
Completion: 0 to 1 µg/mL

Prompt: Repeat for the following compound: O=C(c1ccccc1)C1CN(C2CCCO2)CCC1(O)c1ccccc1 (centres unmarked) [Compound 9]
Completion: 0 to 1 µg/mL

Prompt: Repeat for the following compound: CCN1CCC(O)(c2ccc(F)cc2)C(C(=O)c2ccc(F)cc2)C1 (centres unmarked) [Compound 5]
Completion: 5 to 10 µg/mL

Prompt: Repeat for the following compound: CCCCN1CCC(O)(c2ccccc2)C(C(=O)c2ccccc2)C1 (centres unmarked) [Compound 6]
Completion: 1 to 5 µg/mL

Prompt: Repeat for the following compound: CN1CCC(O)(c2ccc(Br)cc2)C(C(=O)c2ccc(Br)cc2)C1 (centres unmarked) [Compound 3]
Completion: 5 to 10 µg/mL

Prompt: Repeat for the following compound: CC1(C)CC(N2CCC(O)(c3ccccc3)C(C(=O)c3ccccc3)C2)CC(C)(C)N1 (centres unmarked) [Compound 11]
Completion: 1 to 5 µg/mL

Prompt: Repeat for the following compound: CN1CCC(O)(c2ccccc2)C(C(=O)c2ccccc2)C1 (centres unmarked) [Compound 1]
Completion: 1 to 10 µg/mL
